# Tested On: CYP2C19 (Homo sapiens, UniProt P33261)
# Construct: 0.1 mg/mL protein human liver microsomes (BD Gentest); tissue BD Gentest; host or cells: human liver microsomes
# Sequence (P33261 whole entry): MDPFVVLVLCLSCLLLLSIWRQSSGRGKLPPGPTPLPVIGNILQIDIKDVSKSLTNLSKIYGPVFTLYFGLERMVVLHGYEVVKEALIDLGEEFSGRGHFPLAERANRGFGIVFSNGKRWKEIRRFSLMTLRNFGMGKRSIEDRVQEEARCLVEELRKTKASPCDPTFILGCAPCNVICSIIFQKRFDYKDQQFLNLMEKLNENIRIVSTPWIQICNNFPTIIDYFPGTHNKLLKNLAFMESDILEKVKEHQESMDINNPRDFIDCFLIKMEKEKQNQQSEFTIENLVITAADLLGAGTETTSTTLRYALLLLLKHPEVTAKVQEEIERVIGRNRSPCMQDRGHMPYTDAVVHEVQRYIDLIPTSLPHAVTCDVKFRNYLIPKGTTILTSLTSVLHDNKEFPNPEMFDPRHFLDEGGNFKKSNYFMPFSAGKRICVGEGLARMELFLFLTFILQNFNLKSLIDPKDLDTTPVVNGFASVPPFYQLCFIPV
# Protocol Description: Cocktail assay for CYPs, mephenytoin 4′-hydroxylation (CYP2C19), human liver microsomes
# Assay type: biochemical
# Condition Set: 30 μM mephenytoin, 0.1 mg/mL human liver microsomes, 10 min at 37° C.; read-out: CYP IC50 (nM) 2C19
Reported Property: IC50 (nM)

// known answers, use as guide
* CN(C)c1ccc(S(=O)(=O)N2CCCC2c2ccccc2-c2cncn2CCc2ccc(F)cc2)cn1 (single isomer, unassigned) [Compound 28a] | 2390
* O=S(=O)(c1cnc(Cl)c(Br)c1)N1CCCC1c1cccc(-c2cncn2CCc2ccc(F)cc2)c1 (centres unmarked) | 109
* CS(=O)(=O)N1CCCC1c1cccc(-c2cncn2CCc2ccc(F)cc2)c1 (centres unmarked) | 2110

(1) O=C(C1CC1)N1CCCC1c1ccccc1-c1cncn1CCc1ccc(F)cc1 (single isomer, unassigned) [Compound 44b]
(2) O=C(NCc1ccc(S(=O)(=O)N2CCCC2c2cccc(-c3cncn3CCc3ccc(F)cc3)c2)s1)c1ccccc1 (single isomer, unassigned) [Compound 55b]
[in] Lab note: check whether 1 or 2 has the lower measured IC50. Write the label of whichever entry you select.
[out] 2
(2: 56 nM, 1: 7130 nM)

----------
# Tested On: CYP3A4 (Homo sapiens, UniProt P08684)
# Sequence (P08684 whole entry): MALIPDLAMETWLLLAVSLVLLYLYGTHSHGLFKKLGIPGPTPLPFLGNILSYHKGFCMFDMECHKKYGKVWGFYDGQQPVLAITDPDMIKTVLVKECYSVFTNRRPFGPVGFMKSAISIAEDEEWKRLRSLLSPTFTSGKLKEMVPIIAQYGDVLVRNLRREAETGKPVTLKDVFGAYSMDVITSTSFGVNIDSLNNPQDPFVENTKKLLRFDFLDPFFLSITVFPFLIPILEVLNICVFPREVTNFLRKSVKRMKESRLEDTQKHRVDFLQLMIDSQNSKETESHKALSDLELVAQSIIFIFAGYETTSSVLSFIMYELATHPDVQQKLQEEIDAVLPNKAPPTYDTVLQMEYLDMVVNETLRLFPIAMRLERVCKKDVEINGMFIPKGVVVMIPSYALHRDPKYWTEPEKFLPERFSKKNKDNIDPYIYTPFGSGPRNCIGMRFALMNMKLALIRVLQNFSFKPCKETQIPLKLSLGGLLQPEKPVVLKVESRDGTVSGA
# Protocol Description: Cocktail assay for CYPs, midazolam 1′-hydroxylation (CYP3A4), human liver microsomes
# Type: biochemical
# Parameters: 0.1 mg/mL protein human liver microsomes (BD Gentest); tissue BD Gentest; host or cells: human liver microsomes
# Condition Set: 2 μM midazolam, 0.1 mg/mL human liver microsomes, 10 min at 37° C.; read-out: CYP IC50 (nM) 3A4 (MDZ)
Reported Property: IC50 (nM)

// known answers, use as guide
- CC(NS(=O)(=O)c1cnc(N2CCN(C)CC2)s1)c1ccc(-c2cncn2CCc2ccc(F)cc2)cc1 (stereo not shown) [Compound 3]: 22
- O=C(c1cccnc1)N1CCCC1c1cccc(-c2cncn2CCc2ccc(F)cc2)c1 (single isomer, unassigned) [Compound 48a]: 24.2
- O=S(=O)(c1ccc(N2CCC(O)CC2)nc1)N1CCCC1c1cccc(-c2cncn2CCc2ccc(F)cc2)c1 (single isomer, unassigned) [Compound 57b]: 4.52
- O=C(c1cccnc1)N1CCCC1c1ccccc1-c1cncn1CCc1ccc(F)cc1 (single isomer, unassigned) [Compound 42b]: 13.1
- O=S(=O)(c1ccc(N2CCC(O)CC2)nc1)N1CCCC1c1cccc(-c2cncn2CCc2ccc(F)cc2)c1 (single isomer, unassigned) [Compound 57a]: 10.4
- CC(=O)Nc1ncc(S(=O)(=O)N2CCCC2c2ccccc2-c2cncn2C)s1 (stereo not shown) [Compound 30]: 18.8
- CC(=O)Nc1ncc(S(=O)(=O)N2CCc3cc(-c4cncn4CCc4ccc(F)cc4)ccc3C2)s1 [Compound 1]: 11
- O=C(C1CCOCC1)N1CCCC1c1cccc(-c2cncn2CCc2ccc(F)cc2)c1 (single isomer, unassigned) [Compound 49b]: 58.6
- CN(C)c1ccc(S(=O)(=O)N2CCCC2c2ccccc2-c2cncn2CCc2ccc(F)cc2)cn1 (single isomer, unassigned) [Compound 28a]: 3.5
- Cn1cncc1-c1ccccc1C1CCCN1S(=O)(=O)c1cnc(N2CCN3C[C@H](O)C[C@H]3C2)s1 (stereo partly shown) [Compound 24]: 32.5

(P) O=S(=O)(c1ccc(N2CCC(O)CC2)nc1)N1CCCC1c1ccccc1-c1cncn1CCc1ccc(F)cc1 (single isomer, unassigned) [Compound 32]
(Q) O=S(=O)(c1cnc(N2CCN3C[C@H](O)C[C@H]3C2)s1)N1CCCC1c1ccccc1-c1cncn1CCc1ccc(F)cc1 (single isomer, unassigned) [Compound 22b]
[in] Which item exceeds the other in IC50, P or Q ? Write the label of whichever entry you select.
[out] Q

----------
# Tested On: CYP2C19 (Homo sapiens)
# Construct: 0.1 mg/mL protein human liver microsomes (BD Gentest); tissue BD Gentest; host or cells: human liver microsomes
# Protocol Description: Cocktail assay for CYPs, mephenytoin 4′-hydroxylation (CYP2C19), human liver microsomes
# Assay type: biochemical
# Condition Set: 30 μM mephenytoin, 0.1 mg/mL human liver microsomes, 10 min at 37° C.; read-out: CYP IC50 (nM) 2C19
Reported Property: IC50 (nM)

(I) O=C(C1CCOCC1)N1CCCC1c1cccc(-c2cncn2CCc2ccc(F)cc2)c1 (single isomer, unassigned) [Compound 49b]
(II) O=S(=O)(c1ccc(N2CCC(O)CC2)nc1)N1CCCC1c1cccc(-c2cncn2CCc2ccc(F)cc2)c1 (single isomer, unassigned) [Compound 57b]
[in] Lab note: check whether I or II has the lower measured IC50. Write the label of whichever entry you select.
[out] II

(a) CN1CCN(c2ncc(S(=O)(=O)N3CCCC3c3ccc(-c4cncn4CCc4ccc(F)cc4)cc3)s2)CC1 (centres unmarked) [Compound 9]
(b) CS(=O)(=O)N1CCCC1c1ccccc1-c1cncn1CCc1ccc(F)cc1 (single isomer, unassigned) [Compound 23a]
(c) CC(=O)Nc1ncc(S(=O)(=O)NCc2ccc(-c3cncn3CCc3ccc(F)cc3)cn2)s1 [Compound 11]
(d) CC(=O)Nc1ncc(S(=O)(=O)NC(C)(C)c2ccccc2-c2cncn2CCc2ccc(F)cc2)s1 [Compound 7]
(e) CN(C)c1ccc(S(=O)(=O)N2CCc3c(cccc3-c3cncn3CCc3ccc(F)cc3)C2)cn1 [Compound 61]
[in] Endpoint returns the given compounds ordered by ascending IC50. List the labels, following the order given in the request.
[out] e, a, c, d, b
(e: 65 nM, a: 148 nM, c: 912 nM, d: 3180 nM, b: 6920 nM)

(P) CN(C)c1ccc(S(=O)(=O)N2CCCC2c2ccccc2-c2cncn2CCc2ccc(F)cc2)cn1 (single isomer, unassigned) [Compound 28b]
(Q) O=C(Oc1ccc(Cl)cc1)N1CCCC1c1ccccc1-c1cncn1CCc1ccc(F)cc1 (centres unmarked) [Compound 36]
(R) C[C@H](c1ccc(F)cc1)n1cncc1-c1cccc2c1CCN(S(=O)(=O)c1cnc(N3CCN4C[C@H](O)C[C@H]4C3)s1)C2 [Compound 63]
[in] Endpoint returns the given compounds ordered by ascending IC50. List the labels, following the order given in the request.
[out] Q, R, P
(Q: 1680 nM, R: 2610 nM, P: 4980 nM)

----------
# Tested On: CYP2C19 (Homo sapiens, UniProt P33261)
# Construct: 0.1 mg/mL protein human liver microsomes (BD Gentest); tissue BD Gentest; host or cells: human liver microsomes
# Protocol Description: Cocktail assay for CYPs, mephenytoin 4′-hydroxylation (CYP2C19), human liver microsomes
# Assay type: biochemical
# Condition Set: 30 μM mephenytoin, 0.1 mg/mL human liver microsomes, 10 min at 37° C.; read-out: CYP IC50 (nM) 2C19
Reported Property: IC50 (nM)

(P) CN1CCCC1c1ccccc1-c1cncn1CCc1ccc(F)cc1 (single isomer, unassigned) [Compound 45a]
(Q) CC(C)OC(=O)N1CCCC1c1ccccc1-c1cncn1CCc1ccc(F)cc1 (single isomer, unassigned) [Compound 39b]
[in] Which item exceeds the other in IC50, P or Q ? Write the label of whichever entry you select.
[out] P
(P: 7790 nM, Q: 4740 nM)

(P) O=S(=O)(c1ccc(N2CCN(CCO)CC2)nc1)N1CCCC1c1ccccc1-c1cncn1CCc1ccc(F)cc1 (single isomer, unassigned) [Compound 35b]
(Q) O=C(C1CC1)N1CCCC1c1ccccc1-c1cncn1CCc1ccc(F)cc1 (single isomer, unassigned) [Compound 44a]
[in] Lab note: check whether P or Q has the lower measured IC50. Write the label of whichever entry you select.
[out] Q

----------
# Tested On: CYP3A4 (Homo sapiens, UniProt P08684)
# Protocol Description: Cocktail assay for CYPs, midazolam 1′-hydroxylation (CYP3A4), human liver microsomes
# Type: biochemical
# Set-up: 0.1 mg/mL protein human liver microsomes (BD Gentest); tissue BD Gentest; host or cells: human liver microsomes
# Condition Set: 2 μM midazolam, 0.1 mg/mL human liver microsomes, 10 min at 37° C.; read-out: CYP IC50 (nM) 3A4 (MDZ)
Reported Property: IC50 (nM)

// known answers, use as guide
• CN1CCN(c2ncc(S(=O)(=O)N3CCCC3c3ccc(-c4cncn4CCc4ccc(F)cc4)cc3)s2)CC1 (stereo not shown) = 9
• O=C(Oc1ccc(Cl)cc1)N1CCCC1c1ccccc1-c1cncn1CCc1ccc(F)cc1 (stereo not shown) = 19.4
• O=C(NCc1ccc(S(=O)(=O)N2CCCC2c2cccc(-c3cncn3CCc3ccc(F)cc3)c2)s1)c1ccccc1 (single isomer, unassigned) [Compound 55b] = 5.1
• O=S(=O)(NCc1ccccc1-c1cncn1CCc1ccc(F)cc1)c1cccnc1 = 10.5
• CC(C)NC(=O)N1CCCC1c1cccc(-c2cncn2CCc2ccc(F)cc2)c1 (stereo not shown) = 9.4
• CN1CCN(c2ncc(S(=O)(=O)N3Cc4cccc(-c5cncn5CCc5ccc(F)cc5)c4C3)s2)CC1 = 13.2
• CC(C)OC(=O)N1CCCC1c1cccc(-c2cncn2CCc2ccc(F)cc2)c1 (stereo not shown) = 18.8
• CC(C)(C)OC(=O)N1CCCC1c1ccccc1-c1cncn1C1CC1 (stereo not shown) = 17.8

(1) O=S(=O)(c1ccc(N2CCOCC2)nc1)N1CCc2c(cccc2-c2cncn2CCc2ccc(F)cc2)C1
(2) CC(=O)Nc1ncc(S(=O)(=O)NC2(c3ccc(-c4cncn4[C@H](C)c4ccc(F)cc4)cc3)CC2)s1
(3) CC(=O)Nc1ncc(S(=O)(=O)NCc2ccccc2-c2cncn2CCc2ccc(F)cc2)s1
(4) CN1CCN(c2ccc(S(=O)(=O)N3CCc4c(cccc4-c4cncn4CCc4ccc(F)cc4)C3)cn2)CC1
(5) CN1CCN(c2ncc(S(=O)(=O)NC(c3ccccc3)c3ccccc3-c3cncn3CCc3ccc(F)cc3)s2)CC1 (stereo not shown)
[in] Endpoint returns the given compounds ordered by ascending IC50. List the labels, following the order given in the request.
[out] 4, 1, 3, 5, 2

(A) CN(C)c1ccc(S(=O)(=O)N2CCc3c(cccc3-c3cncn3CCc3ccc(F)cc3)C2)cn1
(B) COCCN(C)c1ccc(S(=O)(=O)N2CCc3c(cccc3-c3cncn3CCc3ccc(F)cc3)C2)cn1
(C) O=C(c1cccnc1)N1CCCC1c1cccc(-c2cncn2CCc2ccc(F)cc2)c1 (single isomer, unassigned) [Compound 48b]
(D) CS(=O)(=O)N1CCCC1c1ccccc1-c1cncn1CCc1ccc(F)cc1 (single isomer, unassigned) [Compound 23b]
[in] Ordering criterion: IC50; begin with the maximum. List the labels, following the order given in the request.
[out] C, D, A, B
(C: 41.2 nM, D: 17 nM, A: 7.6 nM, B: 5.2 nM)

(1) COCCn1cncc1-c1ccccc1C1CCCN1S(=O)(=O)c1cnc(NC(C)=O)s1 (stereo not shown)
(2) O=S(=O)(c1ccc(N2CCN(CCO)CC2)nc1)N1CCCC1c1ccccc1-c1cncn1CCc1ccc(F)cc1 (single isomer, unassigned) [Compound 35b]
[in] Lab note: check whether 1 or 2 has the lower measured IC50. Write the label of whichever entry you select.
[out] 2
(2: 4 nM, 1: 38.5 nM)

(I) C[C@H](c1ccc(F)cc1)n1cncc1-c1ccc2c(c1)CN(S(=O)(=O)c1cnc(N)s1)CC2
(II) O=S(=O)(c1cnc(N2CCN3C[C@H](O)C[C@H]3C2)s1)N1CCCC1c1ccccc1-c1cncn1CCc1ccc(F)cc1 (single isomer, unassigned) [Compound 22a]
(III) CC(=O)Nc1ncc(S(=O)(=O)N2CCCC2c2ccccc2-c2cncn2C2CC2)s1 (stereo not shown)
[in] Ordering criterion: IC50; begin with the maximum. List the labels, following the order given in the request.
[out] I, III, II
(I: 39 nM, III: 25.4 nM, II: 5.3 nM)

// data source = patent US9975888B2
